# method_description: Solid-state stability (HPLC purity and XRPD crystal form on storage)
# Type: physicochemical
# assay_context: 25°C /60%RH/open, 4 weeks, HPLC
Where a name gives a salt, the structure may show the parent alone.
measured_parameter: Purity (area %)

[[record]]
compound = "CNCc1ccc(NS(=O)(=O)c2ccsc2)c(-c2ccco2)c1 [Pyroglutamate crystal form I]"
obs_value = 98.57

[[record]]
compound = "CNCc1ccc(NS(=O)(=O)c2ccsc2)c(-c2ccco2)c1 [succinate crystal form E]"
obs_value = 98.94

[[record]]
compound = "CNCc1ccc(NS(=O)(=O)c2ccsc2)c(-c2ccco2)c1 [fumarate crystal form B]"
obs_value = 98.57

[[record]]
compound = "CNCc1ccc(NS(=O)(=O)c2ccsc2)c(-c2ccco2)c1 [Malonate crystal form K]"
obs_value = 98.59

[[record]]
compound = "CNCc1ccc(NS(=O)(=O)c2ccsc2)c(-c2ccco2)c1 [sulfate crystal form D]"
obs_value = 98.78

[[record]]
compound = "CNCc1ccc(NS(=O)(=O)c2ccsc2)c(-c2ccco2)c1 [benzene sulfonate crystal form J]"
obs_value = 98.82

[[record]]
compound = "CNCc1ccc(NS(=O)(=O)c2ccsc2)c(-c2ccco2)c1 [Phosphate crystal form G]"
obs_value = 98.04

[[record]]
compound = "CNCc1ccc(NS(=O)(=O)c2ccsc2)c(-c2ccco2)c1 [Tartrate crystal form H]"
obs_value = 98.6

[[record]]
compound = "CNCc1ccc(NS(=O)(=O)c2ccsc2)c(-c2ccco2)c1 [free crystal form A]"
obs_value = 98.1

[[record]]
compound = "CNCc1ccc(NS(=O)(=O)c2ccsc2)c(-c2ccco2)c1 [malate crystal form F]"
obs_value = 98.79

[[record]]
compound = "CNCc1ccc(NS(=O)(=O)c2ccsc2)c(-c2ccco2)c1 [hydrochloride crystal form C]"
obs_value = 98.87


---

Below, each entry is listed with its recorded Purity (area %).
# method_description: Solid-state stability (HPLC purity and XRPD crystal form on storage)
# Format: physicochemical
# assay_context: 40°C /75%RH/open, 2 weeks, HPLC
Where a name gives a salt, the structure may show the parent alone.
measured_parameter: Purity (area %)

[[record]]
compound = "CNCc1ccc(NS(=O)(=O)c2ccsc2)c(-c2ccco2)c1 [sulfate crystal form D]"
units_symbol = "area %"
obs_value = 98.65

[[record]]
compound = "CNCc1ccc(NS(=O)(=O)c2ccsc2)c(-c2ccco2)c1 [hydrochloride crystal form C]"
units_symbol = "area %"
obs_value = 98.9

[[record]]
compound = "CNCc1ccc(NS(=O)(=O)c2ccsc2)c(-c2ccco2)c1 [benzene sulfonate crystal form J]"
units_symbol = "area %"
obs_value = 98.82


---

# method_description: Hygroscopicity by dynamic moisture absorption (DVS)
# Assay type: physicochemical
# assay_context: DVS, 0% RH-95% RH adsorption curve, 25°C/80% RH
Counter-ions that a name gives are not always drawn.
measured_parameter: moisture adsorption

[[record]]
compound = "CNCc1ccc(NS(=O)(=O)c2ccsc2)c(-c2ccco2)c1 [hydrochloride crystal form C]"
measured_parameter = "moisture adsorption"
obs_value = "5.5%"

[[record]]
compound = "CNCc1ccc(NS(=O)(=O)c2ccsc2)c(-c2ccco2)c1 [succinate crystal form E]"
measured_parameter = "moisture adsorption"
obs_value = "0.6%"

[[record]]
compound = "CNCc1ccc(NS(=O)(=O)c2ccsc2)c(-c2ccco2)c1 [free crystal form A]"
measured_parameter = "moisture adsorption"
obs_value = "1.6%"

[[record]]
compound = "CNCc1ccc(NS(=O)(=O)c2ccsc2)c(-c2ccco2)c1 [sulfate crystal form D]"
measured_parameter = "moisture adsorption"
obs_value = "1.3%"

[[record]]
compound = "CNCc1ccc(NS(=O)(=O)c2ccsc2)c(-c2ccco2)c1 [fumarate crystal form B]"
measured_parameter = "moisture adsorption"
obs_value = "0.2%"

[[record]]
compound = "CNCc1ccc(NS(=O)(=O)c2ccsc2)c(-c2ccco2)c1 [malate crystal form F]"
measured_parameter = "moisture adsorption"
obs_value = "1.4%"

